# target-system: MoChiO7A, Magnaporthe (anamorph Pyricularia) oryzae 70-15, SEQ ID NO: 21 (Table 2: SEQ ID NO: 35) (Pyricularia oryzae, UniProt G4NAH7)
# particulars: oxidase assay, 50 mM NaOAc pH 5.2, MoChiO7A
endpoint: kcat (s⁻¹)

>>> result("CC(=O)N[C@H]1[C@H](O[C@H]2[C@H](O)[C@@H](NC(C)=O)C(O)O[C@@H]2CO)O[C@H](CO)[C@@H](O[C@@H]2O[C@H](CO)[C@@H](O)[C@H](O)[C@H]2NC(C)=O)[C@@H]1O (stereo partly shown)")
3.71
>>> result("CC(=O)N[C@H]1C(O)O[C@H](CO)[C@@H](O)[C@@H]1O (stereo partly shown)")
3.8
>>> result("CC(=O)N[C@H]1C(O)O[C@H](CO)[C@H](O)[C@@H]1O (stereo partly shown)")
3.67
>>> result("CC(=O)N[C@H]1[C@H](O[C@H]2[C@H](O)[C@@H](NC(C)=O)C(O)O[C@@H]2CO)O[C@H](CO)[C@@H](O)[C@@H]1O (stereo partly shown)")
4.37

Each recorded value in this set is attributed to patent US12630806B2.
